Several reports have described pKi for Histamine H3 receptor (Homo sapiens, UniProt Q9Y5N1); a selection of those results is presented here.
pKi: −log10 of the molar value.
readoutKind: pKi

Some compounds with recorded pKi:
{"compound": "COc1ccc(C2CN(C)Cc3cc(OCCCN4CCN(C(C)=O)CC4)ccc32)cc1 (centres unmarked)", "pKi": 7.15}
{"compound": "COc1ccc(C2CN(C)Cc3cc(OCCCN4CCOCC4)c(C)cc32)cc1F (centres unmarked)", "pKi": 7.92}
{"compound": "CCCCCN(CCCCC)CCCOc1ccc(-c2cn3cccc(C)c3n2)cc1", "pKi": 6.30}

(I) CN(C)CCC(Oc1cccc(Cl)c1)c1ccc(OCCCN2CCCCC2)cc1 (centres unmarked)
(II) CN1Cc2cc(OCCCN3CCCCC3)ncc2C(c2ccc(Cl)cc2)C1 (centres unmarked)
**Q:** Could you point out whether the larger pKi belongs to I or to II ? Bench note: the answer is the label of the chosen record.
**A:** I
(I: 8.77, II: 7.82)
